molecular target: Ba/F3 cells transformed with human Tel-TrkA (Homo sapiens); construct: expressed in transfected cells; host or cells: Ba/F3 murine hematopoietic progenitor cells (luciferase expressing); the other entry of the earlier key: ETV6 (P41212, Transcription factor ETV6); test: Proliferation of Ba/F3 cells transformed with human Tel-TrkA (Ba/F3 Tel-TrkA); assay type: cell-based; conditions: Table 1; 48 hours, Bright Glo luminescence; read-out: Ba/F3 Tel-TrkA
pIC50: −log10 of the molar value.
Mark condition met for reported pIC50 of 7 or greater; mark condition not met for anything smaller.

[[record]]
structure_smiles = "O=C(NCCCl)Nc1cnc2ccc(N3CCC[C@H]3c3cccc(F)c3)nn12"
answer_label = "condition not met"

[[record]]
structure_smiles = "O=C(NCC(F)(F)C(F)(F)F)c1cnc2ccc(N3CCC[C@H]3c3cccc(F)c3)nn12"
answer_label = "condition met"

[[record]]
structure_smiles = "CCNC(=O)c1cnc2ccc(N3CCC[C@@H]3c3cccc(F)c3)nn12"
answer_label = "condition met"

[[record]]
structure_smiles = "CC(C)(C)OC(=O)N1CCC(NC(=O)c2cnc3ccc(N4CCC[C@@H]4c4cccc(F)c4)nn23)CC1"
answer_label = "condition met"

[[record]]
structure_smiles = "Fc1cccc([C@H]2CCCN2c2ccc3ncc(Br)n3n2)c1"
answer_label = "condition not met"

[[record]]
structure_smiles = "NC(=O)c1cnc2ccc(N3C[C@@H](F)C[C@@H]3c3cccc(F)c3)nn12"
answer_label = "condition met"

[[record]]
structure_smiles = "O=C(NOCCO)c1cnc2ccc(N3CCC[C@@H]3c3cccc(F)c3)nn12"
answer_label = "condition met"


* * *

target: Ba/F3 cells transformed with human Tel-TrkA (Homo sapiens); construct: expressed in transfected cells; host or cells: Ba/F3 murine hematopoietic progenitor cells (luciferase expressing); the other entry of the earlier key: ETV6 (P41212, Transcription factor ETV6); test: Proliferation of Ba/F3 cells transformed with human Tel-TrkA (Ba/F3 Tel-TrkA); type: cell-based; conditions: Table 1; 48 hours, Bright Glo luminescence; read-out: Ba/F3 Tel-TrkA
measured endpoint: IC50

[[record]]
compound = "CCOC(=O)c1cnc2ccc(N3CCC(=O)C3c3cccc(F)c3)nn12 (stereo not drawn) [X-159]"
system_name = "Ba/F3 cells transformed with human Tel-TrkA (Homo sapiens)"
observed = "251 nM"

[[record]]
compound = "COc1cccc(/C=C/C(=O)c2cnc3ccc(N4CCC[C@@H]4c4cccc(F)c4)nn23)n1 [X-131]"
system_name = "Ba/F3 cells transformed with human Tel-TrkA (Homo sapiens)"
observed = "194 nM"

[[record]]
compound = "COCCONC(=O)c1cnc2ccc(N3CCC[C@H]3c3cccc(F)c3)nn12 [X-148]"
system_name = "Ba/F3 cells transformed with human Tel-TrkA (Homo sapiens)"
observed = "28 nM"

[[record]]
compound = "O=C(NCCC1CCCO1)c1cnc2ccc(N3CCC[C@@H]3c3cccc(F)c3)nn12 (stereo partly drawn) [X-23]"
system_name = "Ba/F3 cells transformed with human Tel-TrkA (Homo sapiens)"
observed = "92 nM"

[[record]]
compound = "CCONC(=O)c1cnc2ccc(N3CCCC3c3cccc(F)c3)nn12 (stereo not drawn) [X-152]"
system_name = "Ba/F3 cells transformed with human Tel-TrkA (Homo sapiens)"
observed = "42 nM"

[[record]]
compound = "[2H]C1([2H])N(c2ccc3ncc(C(N)=O)n3n2)C([2H])(c2cccc(F)c2)C([2H])([2H])C1([2H])[2H] (stereo not drawn) [X-13]"
system_name = "Ba/F3 cells transformed with human Tel-TrkA (Homo sapiens)"
observed = "110 nM"

[[record]]
compound = "CS(=O)(=O)N1CCC(NC(=O)c2cnc3ccc(N4CCC[C@@H]4c4cccc(F)c4)nn23)CC1 [X-71]"
system_name = "Ba/F3 cells transformed with human Tel-TrkA (Homo sapiens)"
observed = "22 nM"

[[record]]
compound = "N/C(=N\\OCCO)c1cnc2ccc(N3CCC[C@@H]3c3cccc(F)c3)nn12 [X-229]"
system_name = "Ba/F3 cells transformed with human Tel-TrkA (Homo sapiens)"
observed = "331 nM"

[[record]]
compound = "O=C(NCCC1CCCCC1)c1cnc2ccc(N3CCC[C@@H]3c3cccc(F)c3)nn12 [X-91]"
system_name = "Ba/F3 cells transformed with human Tel-TrkA (Homo sapiens)"
observed = "289 nM"

[[record]]
compound = "NC(=O)c1cnc2ccc(N3CCCCC3c3cccc(F)c3)nn12 (stereo not drawn) [X-18]"
system_name = "Ba/F3 cells transformed with human Tel-TrkA (Homo sapiens)"
observed = "27 nM"

[[record]]
compound = "O=C(N[C@@H]1CCC[C@H]1O)c1cnc2ccc(N3CCC[C@@H]3c3cccc(F)c3)nn12 [X-81]"
system_name = "Ba/F3 cells transformed with human Tel-TrkA (Homo sapiens)"
observed = "12 nM"

[[record]]
compound = "CC(=O)NCC(=O)Nc1cnc2ccc(N3CCC[C@H]3c3cccc(F)c3)nn12 [X-201]"
system_name = "Ba/F3 cells transformed with human Tel-TrkA (Homo sapiens)"
observed = "392 nM"

[[record]]
compound = "NC(=O)c1cnc2ccc(N3C[C@@H](F)C[C@@H]3c3cc(F)ccc3F)nn12 [X-242]"
system_name = "Ba/F3 cells transformed with human Tel-TrkA (Homo sapiens)"
observed = "0.5 nM"

[[record]]
compound = "CC(C)NC(=O)c1cnc2ccc(N3CCC[C@@H]3c3cccc(F)c3)nn12 [X-39]"
system_name = "Ba/F3 cells transformed with human Tel-TrkA (Homo sapiens)"
observed = "14 nM"

[[record]]
compound = "[2H]C1([2H])C(c2cccc(F)c2)N(c2ccc3ncc(C(N)=O)n3n2)C([2H])([2H])C1([2H])[2H] (stereo not drawn) [X-12]"
system_name = "Ba/F3 cells transformed with human Tel-TrkA (Homo sapiens)"
observed = "105 nM"

[[record]]
compound = "O=C(N[C@H]1CCCC[C@@H]1CO)c1cnc2ccc(N3CCC[C@@H]3c3cccc(F)c3)nn12 [X-28]"
system_name = "Ba/F3 cells transformed with human Tel-TrkA (Homo sapiens)"
observed = "112 nM"

[[record]]
compound = "NC(=O)c1cnc2ccc(N3CCCC3c3cccc(F)c3)nn12 (stereo not drawn) [X-5]"
system_name = "Ba/F3 cells transformed with human Tel-TrkA (Homo sapiens)"
observed = "117 nM"

[[record]]
compound = "O=C(NCC1CCC1)c1cnc2ccc(N3CCC[C@@H]3c3cccc(F)c3)nn12 [X-22]"
system_name = "Ba/F3 cells transformed with human Tel-TrkA (Homo sapiens)"
observed = "47 nM"


* * *

# IC50 annotations
biological target: Ba/F3 cells transformed with human Tel-TrkA (Homo sapiens, UniProt P04629); construct: expressed in transfected cells; host or cells: Ba/F3 murine hematopoietic progenitor cells (luciferase expressing); the other entry of the earlier key: ETV6 (P41212, Transcription factor ETV6); experiment: Proliferation of Ba/F3 cells transformed with human Tel-TrkA (Ba/F3 Tel-TrkA); type: cell-based; settings: Table 1; 48 hours, Bright Glo luminescence; read-out: Ba/F3 Tel-TrkA
Sequence (P04629 510-796 limits assumed): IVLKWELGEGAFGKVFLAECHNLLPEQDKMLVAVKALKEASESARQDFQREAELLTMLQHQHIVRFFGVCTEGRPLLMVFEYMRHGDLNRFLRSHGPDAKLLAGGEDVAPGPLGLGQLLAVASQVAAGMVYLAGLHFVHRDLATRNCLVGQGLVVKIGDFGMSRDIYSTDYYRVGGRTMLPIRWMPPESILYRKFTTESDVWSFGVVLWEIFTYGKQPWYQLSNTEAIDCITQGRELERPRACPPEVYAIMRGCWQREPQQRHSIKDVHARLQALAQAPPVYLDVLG
measured endpoint: IC50 (nM)

[[record]]
compound = "CN1CCN(NC(=O)c2cnc3ccc(N4CCC[C@@H]4c4cccc(F)c4)nn23)CC1 [X-154]"
observed = 153

[[record]]
compound = "[2H]C1([2H])N(c2ccc3ncc(C(=O)OCC)n3n2)C([2H])(c2cccc(F)c2)C([2H])([2H])C1([2H])[2H] (stereo not shown) [X-163]"
observed = 79

[[record]]
compound = "O=C(NC1CCCC1)c1cnc2ccc(N3CCC[C@@H]3c3cccc(F)c3)nn12 [X-48]"
observed = 37

[[record]]
compound = "COC(=O)c1cnc2ccc(N3CCC[C@@H]3c3cccc(F)c3)nn12 [X-157]"
observed = 112

[[record]]
compound = "O=C(Nc1cnc2ccc(N3CC(F)(F)C[C@@H]3c3cccc(F)c3)nn12)Oc1ccccc1 [X-238]"
observed = 445

[[record]]
compound = "CS(=O)(=O)N1CCC(NC(=O)c2cnc3ccc(N4C[C@@H](F)C[C@@H]4c4cccc(F)c4)nn23)CC1 [X-121]"
observed = 2

[[record]]
compound = "CCCS(=O)(=O)N1CCC(NC(=O)c2cnc3ccc(N4CCC[C@@H]4c4cccc(F)c4)nn23)CC1 [X-35]"
observed = 26

[[record]]
compound = "O=C(NCC(F)(F)F)c1cnc2ccc(N3CCCC3c3cccc(F)c3)nn12 (stereo not shown) [X-111]"
observed = 13

[[record]]
compound = "NC(=O)c1cnc2ccc(N3CC(F)(F)C[C@@H]3c3cccc(F)c3)nn12 [X-247]"
observed = 34

[[record]]
compound = "CC(=O)OCC(=O)N1CCC(NC(=O)c2cnc3ccc(N4CCC[C@@H]4c4cccc(F)c4)nn23)CC1 [X-73]"
observed = 109

[[record]]
compound = "NC(=O)c1cnc2ccc(N3CCOCC3c3cccc(F)c3)nn12 (racemic) [X-16]"
observed = 614

[[record]]
compound = "O=C(NCC1CCCCC1)c1cnc2ccc(N3CCC[C@@H]3c3cccc(F)c3)nn12 [X-95]"
observed = 118

[[record]]
compound = "O=C(NC1CCNCC1)c1cnc2ccc(N3C[C@@H](F)C[C@@H]3c3cccc(F)c3)nn12 [X-120]"
observed = 331

[[record]]
compound = "CC(C)(C)OC(=O)N1CC(NC(=O)c2cnc3ccc(N4CCC[C@@H]4c4cccc(F)c4)nn23)C1 [X-61]"
observed = 144

[[record]]
compound = "Fc1cccc([C@H]2CC(F)(F)CN2c2ccc3ncc(Br)n3n2)c1 [X-245]"
observed = 44

[[record]]
compound = "CN(C)CCNC(=O)c1cnc2ccc(N3CCC[C@@H]3c3cccc(F)c3)nn12 [X-56]"
observed = 676

[[record]]
compound = "CCn1nccc1NC(=O)c1cnc2ccc(N3CCC[C@@H]3c3cccc(F)c3)nn12 [X-77]"
observed = 548

[[record]]
compound = "NNC(=O)c1cnc2ccc(N3CCC[C@@H]3c3cccc(F)c3)nn12 [X-155]"
observed = 242

[[record]]
compound = "CCOC(=O)c1cnc2ccc(N3C[C@@H](F)C[C@@H]3c3ccc(F)c(F)c3)nn12 [X-239]"
observed = 194

[[record]]
compound = "CS(=O)(=O)N1CC[C@@H](NC(=O)c2cnc3ccc(N4CCC[C@@H]4c4cccc(F)c4)nn23)C1 [X-70]"
observed = 293

[[record]]
compound = "CO/N=C(/N)c1cnc2ccc(N3CCC[C@@H]3c3cccc(F)c3)nn12 [X-228]"
observed = 132

[[record]]
compound = "O=C(NCc1ccc(Cl)nc1)c1cnc2ccc(N3CCC[C@@H]3c3cccc(F)c3)nn12 [X-57]"
observed = 190

[[record]]
compound = "NC(=O)c1cnc2ccc(N3CCOC[C@H]3c3cccc(F)c3)nn12 [X-17]"
observed = 328

[[record]]
compound = "O=C(NO)c1cnc2ccc(N3C[C@@H](F)C[C@@H]3c3cccc(F)c3)nn12 [X-153]"
observed = 10

[[record]]
compound = "COC(=O)[C@@H](CO)NC(=O)c1cnc2ccc(N3CCC[C@@H]3c3cccc(F)c3)nn12 [X-98]"
observed = 354

[[record]]
compound = "CCS(=O)(=O)N1CCC(NC(=O)c2cnc3ccc(N4CCC[C@@H]4c4cccc(F)c4)nn23)CC1 [X-27]"
observed = 17

[[record]]
compound = "N#Cc1cc(F)cc([C@H]2C[C@H](F)CN2c2ccc3ncc(C(N)=O)n3n2)c1 [X-244]"
observed = 61

[[record]]
compound = "N#Cc1ccc(CNC(=O)c2cnc3ccc(N4CCC[C@@H]4c4cccc(F)c4)nn23)cc1 [X-89]"
observed = 164

[[record]]
compound = "NC(=NO)c1cnc2ccc(N3CCCC3c3cccc(F)c3)nn12 (stereo not shown) [X-226]"
observed = 165

[[record]]
compound = "CC1(C)[C@H]2CC[C@@H](CNC(=O)c3cnc4ccc(N5CCC[C@@H]5c5cccc(F)c5)nn34)[C@@H]1C2 [X-110]"
observed = 207

[[record]]
compound = "[2H]C1([2H])C(c2cccc(F)c2)N(c2ccc3ncc(C(=O)OCC)n3n2)C([2H])([2H])C1([2H])[2H] (stereo not shown) [X-161]"
observed = 63

[[record]]
compound = "O=C(/C=C/c1cccc(N2CCOCC2)n1)c1cnc2ccc(N3CCC[C@@H]3c3cccc(F)c3)nn12 [X-128]"
observed = 174

[[record]]
compound = "CC(C)(C)NC(=O)c1cnc2ccc(N3CCC[C@@H]3c3cccc(F)c3)nn12 [X-45]"
observed = 22

[[record]]
compound = "CC1(C)CCC(CNC(=O)c2cnc3ccc(N4CCC[C@@H]4c4cccc(F)c4)nn23)O1 (stereo partly shown) [X-36]"
observed = 120

